# Test system: HCT116
# METHOD: viability inhibition vs untreated; higher = more cytotoxic
# TEST_CONDITIONS: genotype: MTA1-KO; 400 nM; 72 h
Structures can show the parent of a compound that is named as a salt.
MEASUREMENT_KIND: viability inhibition (%)
Field: numeric (%). Do not append units.

*Q* If you can, please state the reported viability inhibition value of `Nc1cccc(S(=O)(=O)N2CCCN(S(=O)(=O)c3ccc4c(c3)OCCO4)CC2)c1` .
*A* -15.8

*Q* If you can, please state the reported viability inhibition value of `CC1=C(CSC(=S)N2CCCCC2)C(=O)c2ccccc2C1=O` .
*A* -11

*Q* If you can, please state the reported viability inhibition value of `CC1(C)OCCn2c1nc1c(N3CCOCC3)nc(-c3cnc(N)nc3)nc12` .
*A* 48

*Q* If you can, please state the reported viability inhibition value of `Cc1ccc2nc(CN(CCN(Cc3nc4ccc(C)cc4[nH]3)Cc3nc4ccc(C)cc4[nH]3)Cc3nc4ccc(C)cc4[nH]3)[nH]c2c1` .
*A* -3.97

*Q* If you can, please state the reported viability inhibition value of Cc1cc(-n2cccc2)c(S(C)(=O)=O)cc1C(=O)N=C(N)N [Eniporide] .
*A* 2.87

*Q* If you can, please state the reported viability inhibition value of Nc1ncnc2c1ncn2[C@@H]1O[C@H](COP(=O)(O)O)[C@@H](O)[C@H]1O [Adenosine 5'-monophosphate monohydrate] .
*A* -20.2

*Q* If you can, please state the reported viability inhibition value of `Oc1ccc2c(c1)OCO2` .
*A* -20.7

*Q* If you can, please state the reported viability inhibition value of `O=c1c(O)c(-c2ccc(O)cc2)oc2cc(O)cc(O)c12` .
*A* 3.45

*Q* If you can, please state the reported viability inhibition value of `Clc1ccccc1C(c1ccccc1)(c1ccccc1)n1ccnc1` .
*A* -15

*Q* If you can, please state the reported viability inhibition value of `CN(Cc1ccccc1)c1ccc2cc(C(=O)O)c(=O)oc2c1` .
*A* 20.9

*Q* If you can, please state the reported viability inhibition value of CN(C)C(=N)N=C(N)N [Metformin hydrochloride] .
*A* -16.8

*Q* If you can, please state the reported viability inhibition value of `Cc1cc(-c2nc(-c3ccc(OC(F)(F)F)cc3)no2)nn1Cc1ccnc(N2CCN(C3CC3)CC2)c1` .
*A* 21.4

*Q* If you can, please state the reported viability inhibition value of `Cc1[nH]nc(C(F)(F)F)c1Cc1sc2c(c1C(=O)N1C[C@](C)(O)CO1)c(=O)n(C)c(=O)n2C(C)C` .
*A* 22.9

*Q* If you can, please state the reported viability inhibition value of CN(Cc1cnc2nc(N)nc(N)c2n1)c1ccc(C(=O)N[C@@H](CCC(=O)O)C(=O)O)cc1 [Methotrexate] .
*A* -6.45

*Q* If you can, please state the reported viability inhibition value of `C/C=C/c1cc(OC)c(OC)cc1OC` .
*A* -15.1

*Q* If you can, please state the reported viability inhibition value of `O=C(O)c1ccc(C=C2SC(=S)N(c3cccc(C(F)(F)F)c3)C2=O)cc1` .
*A* -0.878

*Q* If you can, please state the reported viability inhibition value of `COc1ccc([C@@H]2OC[C@H]3[C@@H]2CO[C@@H]3c2ccc(O[C@@H]3O[C@H](CO)[C@@H](O)[C@H](O)[C@H]3O)c(OC)c2)cc1OC` .
*A* -0.379
